The molecules listed here are annotated with their TGI.
test system: IGROV1 ovarian; experiment: NCI tumour cell line growth inhibition, 48 h

Sample records with TGI:
{"molecule": "Nc1cc2c3c(cccc3c1)C(=O)N(c1ccc(OCCN3CCCCC3)cc1)C2=O", "studySystem": "IGROV1 ovarian", "TGI": "34.4 µM"}
{"molecule": "CSC(=NCCCCN=C(NS(=O)(=O)c1ccc(Cl)cc1)SC)NS(=O)(=O)c1ccc(Cl)cc1", "studySystem": "IGROV1 ovarian", "TGI": "> 100 µM"}
{"molecule": "C=CCNC(=S)N1c2ccccc2NC(=O)CC1C (stereo not drawn)", "studySystem": "IGROV1 ovarian", "TGI": "> 100 µM"}
{"molecule": "COc1cc(C#N)cc(OC)c1OCCOCCOc1c(OC)cc(C#N)cc1OC", "studySystem": "IGROV1 ovarian", "TGI": "> 100 µM"}

Okay, next one:
Asked: Answer with the recorded TGI for the molecule listed here: O=C(O)C1NCCc2c1[nH]c1ccccc21 (stereo not drawn)
Given back: > 100 µM

====

Each entry below lists one item and its recorded log10 of TGI value.
tested on: MALME-3M melanoma; test: NCI tumour cell line growth inhibition, 48 h
Reminder: these figures are log10 of reported TGI, in µM before transformation.

{"compound": "C#CCN=C(N/N=C/c1ccc([N+](=O)[O-])o1)NS(=O)(=O)c1cc(C)c(Cl)cc1SCC(N)=O", "reportedEndpoint": "log10 of TGI", "assayResult": 1.44}
{"compound": "CCCCCC(O)[C@H]1C(=O)C[C@@H](O[Si](C)(C)C(C)(C)C)[C@@H]1/C=C/CCOCc1ccccc1 (some centres not stated)", "reportedEndpoint": "log10 of TGI", "assayResult": 1.46}
{"compound": "CC[C@@]1(O)C(=O)OCc2c1cc1n(c2=O)Cc2c-1nc1ccc(O)cc1c2CC[Si](C)(C)C", "reportedEndpoint": "log10 of TGI", "assayResult": 0.15}
{"compound": "Cn1c(=O)c2c(no[n+]2[O-])n(C)c1=O", "reportedEndpoint": "log10 of TGI", "assayResult": 1.60}

Moving on to the next compound.
Asked: Output reported log10 of TGI of the compound O=C(Nc1nccs1)c1cc2c(cc1Cl)Sc1nccn1S2(=O)=O on MALME-3M melanoma.
Given back: 1.57

====

test system: NCI-H522 lung
Select the correct class. Options are label 1 = active, label 0 = inactive and nothing else.

Past entries and their recorded results:
{"molecule": "NC1=C(Cl)C(=O)c2ccc(S(N)(=O)=O)cc2C1=O", "label": "label 1"}
{"molecule": "N#CC(=S)Nc1ccc(Cl)c(Cl)c1", "label": "label 0"}
{"molecule": "Cc1ccc(S(=O)(=O)/N=c2\\ssc(Nc3ccccc3)c2Cl)cc1", "label": "label 0"}
{"molecule": "O=C(Nc1nccs1)c1cc2c(cc1Cl)Sc1nccn1S2(=O)=O", "label": "label 0"}
{"molecule": "COC(=O)C(C)NP(=O)(OCc1ccc(Cn2cnc3c(=O)[nH]c(N)nc32)cc1)Oc1ccccc1 (stereo not given)", "label": "label 0"}

Asked: What did this assay record as the result for Clc1cc(Cl)c(Cl)c(-c2nc(-c3cccnc3)cs2)c1 ?
Given back: label 0

Asked: Dear colleague, could you share the recorded outcome for C#CCN=C(N/N=C/c1ccc([N+](=O)[O-])o1)NS(=O)(=O)c1cc(C)c(Cl)cc1SCC(N)=O when you have a moment?
Given back: label 0

Asked: Dear colleague, could you share the recorded outcome for CCOC(=O)c1c(C)nc2ccc(Cl)cc2c1-c1ccccc1 when you have a moment?
Given back: label 0

Asked: Record request — test call for C/C(CC(=O)NNc1ccc([N+](=O)[O-])cc1)=N\Nc1ccc([N+](=O)[O-])cc1
Given back: label 0

Asked: I would be grateful if you could indicate the recorded call for O=C1c2cc3c(cc2-c2c1c1ccc(Cl)cc1c(=O)n2C[C@H](O)[C@@H](O)[C@H](O)CO)OCO3 .
Given back: label 1

====

tested on: SN12C renal; test: NCI tumour cell line growth inhibition, 48 h
Below: a set of entries, each annotated with reported TGI.

Please review the entries below; each comes with its answer.
{"compound": "NNC(=O)c1ccccc1Nc1ccccc1C(=O)NN", "assayResult": "> 100 µM"}
{"compound": "Clc1ccc(Nc2nc(Cl)c3[nH]cnc3n2)cc1Cl", "assayResult": "> 100 µM"}
{"compound": "Cc1ccc2c(c1)C(=O)C(Cc1ccccc1C(=O)O)C2 (stereo unspecified)", "assayResult": "> 100 µM"}
{"compound": "Cc1c(C(=O)CC(=O)C(=O)Nc2ccc(Cl)c(Cl)c2)[n+](=O)c2ccccc2n1[O-]", "assayResult": "55.4 µM"}

Asked: // fetch TGI given entry Cn1ncc2c(/N=C/c3cccs3)[nH]c(=S)nc21
Given back: > 69.2 µM

Asked: Report measured TGI; entry is NC1=C(Cl)C(=O)c2ccc(S(N)(=O)=O)cc2C1=O
Given back: 0.34 µM

Asked: Input N=C1N(c2ccccc2)C(=O)C23CCCC2C13N1CCOCC1 (stereo unspecified) , output reported TGI.
Given back: > 100 µM

Asked: Given CN(C)CCCN(c1nc(C(Cl)(Cl)Cl)ns1)c1nc(C(Cl)(Cl)Cl)ns1 , respond with its TGI.
Given back: 11.6 µM

Asked: Recall and state the measured TGI for CN1CCC[C@@H]1CCO[C@](C)(c1ccccc1)c1ccc(Cl)cc1 .
Given back: 18.7 µM

Asked: Give a short answer stating reported TGI for Cc1ccc([N+](=O)[O-])cc1NC(=O)C(=O)Cc1occc(=O)c1O .
Given back: > 100 µM

Asked: Please report the measured TGI for N#CC1=C(S)N(C2OC(CO)C(O)C(O)C2O)C(c2ccccc2)=CC1c1ccccc1 (stereo unspecified)
Given back: > 100 µM

====

test system: HT29 colon; experiment: NCI tumour cell line growth inhibition, 48 h
# Lookup of reported TGI keyed by entry

{"compound": "OCCOCn1cc(Cn2ncc3c(SCc4ccccc4)ncnc32)nn1", "TGI": "> 100 µM"}
{"compound": "O=c1cc(-c2ccc(Cl)cc2)[nH]c2ncccc12", "TGI": "> 100 µM"}
{"compound": "CCOC(=O)/C(=C/c1ccc([N+](=O)[O-])cc1)C(=O)c1ccccc1", "TGI": "3.83 µM"}

Asked: Using known records, supply TGI for CC(Sc1ccccc1)C(CO)(CO)[N+](=O)[O-] (stereo unspecified)
Given back: 32.9 µM

Asked: Tell me measured TGI for Nc1ncnc2c1ncn2C1C=CC(CP(=O)(O)O)C1 (stereo unspecified) please.
Given back: > 100 µM

====

system: KM12 colon
Non-standard residues stand in square brackets, D forms with d. Residues, ends and D or L forms follow the SMILES beside them. ξ: configuration not given here. *: point of attachment. Boc = CC(C)(C)OC(=O)*; ξV = CC(C)C(N)C(=O)O; OBn = c1ccc(CO*)cc1
I would appreciate it if you answered using one of these outcomes: label 1 (active), label 0 (inactive)

Asked: For this molecule, state the assay outcome: O=C1OCc2c1cc(F)cc2[N+](=O)[O-]
Given back: label 0

Asked: Which result was noted for this molecule in the test: COc1ccc(N(CC(=O)NCCC[Te]c2ccccc2)C(=O)CCSC2=C(C)C(=O)c3ccccc3C2=O)cc1
Given back: label 0

Asked: // param item: COC(=O)C(C)NP(=O)(OCc1ccc(Cn2cnc3c(=O)[nH]c(N)nc32)cc1)Oc1ccccc1 (stereo not given) ; yields the recorded call
Given back: label 0

Asked: Record lookup: outcome of this test for C#CCN=C(N/N=C/c1ccc([N+](=O)[O-])o1)NS(=O)(=O)c1cc(C)c(Cl)cc1SCC(N)=O ?
Given back: label 0

Asked: Hi, sorry to bother you, what did the test record for CC(C)C(NC(=O)OC(C)(C)C)C(=O)NCC(=O)OCc1ccccc1 (stereo not given) (Boc-[ξV]-Gly-OBn) ?
Given back: label 0

Asked: Give the logged outcome of this assay for the following molecule: CCOC(=O)c1c(-c2ccccc2)[n+](=O)c2ccc(Cl)cc2n1[O-]
Given back: label 0

Asked: I would be grateful if you could indicate the recorded call for Cc1ccc(S(=O)(=O)/N=c2\ssc(Nc3ccccc3)c2Cl)cc1 .
Given back: label 0

Asked: Per the records of this test, what outcome belongs to NC1=C(Cl)C(=O)c2ccc(S(N)(=O)=O)cc2C1=O ?
Given back: label 1

Asked: Identify the outcome logged in this assay for the molecule shown: Cc1c2c(nn1C(=O)c1nn(-c3ccc(Cl)cc3)cc1O)-c1ccccc1CC2
Given back: label 1

Asked: Test call for this molecule, please: O=C(O)C1NCCc2c1[nH]c1ccccc21 (stereo not given)
Given back: label 0

Asked: Lab log entry: CCOC(=O)c1ccc(N(CCOS(C)(=O)=O)CCOS(C)(=O)=O)cc1C — outcome as called in the assay?
Given back: label 0
